Target entity: Phosphatidylinositol 4-kinase alpha (Homo sapiens)
Sequence (P42356 whole entry): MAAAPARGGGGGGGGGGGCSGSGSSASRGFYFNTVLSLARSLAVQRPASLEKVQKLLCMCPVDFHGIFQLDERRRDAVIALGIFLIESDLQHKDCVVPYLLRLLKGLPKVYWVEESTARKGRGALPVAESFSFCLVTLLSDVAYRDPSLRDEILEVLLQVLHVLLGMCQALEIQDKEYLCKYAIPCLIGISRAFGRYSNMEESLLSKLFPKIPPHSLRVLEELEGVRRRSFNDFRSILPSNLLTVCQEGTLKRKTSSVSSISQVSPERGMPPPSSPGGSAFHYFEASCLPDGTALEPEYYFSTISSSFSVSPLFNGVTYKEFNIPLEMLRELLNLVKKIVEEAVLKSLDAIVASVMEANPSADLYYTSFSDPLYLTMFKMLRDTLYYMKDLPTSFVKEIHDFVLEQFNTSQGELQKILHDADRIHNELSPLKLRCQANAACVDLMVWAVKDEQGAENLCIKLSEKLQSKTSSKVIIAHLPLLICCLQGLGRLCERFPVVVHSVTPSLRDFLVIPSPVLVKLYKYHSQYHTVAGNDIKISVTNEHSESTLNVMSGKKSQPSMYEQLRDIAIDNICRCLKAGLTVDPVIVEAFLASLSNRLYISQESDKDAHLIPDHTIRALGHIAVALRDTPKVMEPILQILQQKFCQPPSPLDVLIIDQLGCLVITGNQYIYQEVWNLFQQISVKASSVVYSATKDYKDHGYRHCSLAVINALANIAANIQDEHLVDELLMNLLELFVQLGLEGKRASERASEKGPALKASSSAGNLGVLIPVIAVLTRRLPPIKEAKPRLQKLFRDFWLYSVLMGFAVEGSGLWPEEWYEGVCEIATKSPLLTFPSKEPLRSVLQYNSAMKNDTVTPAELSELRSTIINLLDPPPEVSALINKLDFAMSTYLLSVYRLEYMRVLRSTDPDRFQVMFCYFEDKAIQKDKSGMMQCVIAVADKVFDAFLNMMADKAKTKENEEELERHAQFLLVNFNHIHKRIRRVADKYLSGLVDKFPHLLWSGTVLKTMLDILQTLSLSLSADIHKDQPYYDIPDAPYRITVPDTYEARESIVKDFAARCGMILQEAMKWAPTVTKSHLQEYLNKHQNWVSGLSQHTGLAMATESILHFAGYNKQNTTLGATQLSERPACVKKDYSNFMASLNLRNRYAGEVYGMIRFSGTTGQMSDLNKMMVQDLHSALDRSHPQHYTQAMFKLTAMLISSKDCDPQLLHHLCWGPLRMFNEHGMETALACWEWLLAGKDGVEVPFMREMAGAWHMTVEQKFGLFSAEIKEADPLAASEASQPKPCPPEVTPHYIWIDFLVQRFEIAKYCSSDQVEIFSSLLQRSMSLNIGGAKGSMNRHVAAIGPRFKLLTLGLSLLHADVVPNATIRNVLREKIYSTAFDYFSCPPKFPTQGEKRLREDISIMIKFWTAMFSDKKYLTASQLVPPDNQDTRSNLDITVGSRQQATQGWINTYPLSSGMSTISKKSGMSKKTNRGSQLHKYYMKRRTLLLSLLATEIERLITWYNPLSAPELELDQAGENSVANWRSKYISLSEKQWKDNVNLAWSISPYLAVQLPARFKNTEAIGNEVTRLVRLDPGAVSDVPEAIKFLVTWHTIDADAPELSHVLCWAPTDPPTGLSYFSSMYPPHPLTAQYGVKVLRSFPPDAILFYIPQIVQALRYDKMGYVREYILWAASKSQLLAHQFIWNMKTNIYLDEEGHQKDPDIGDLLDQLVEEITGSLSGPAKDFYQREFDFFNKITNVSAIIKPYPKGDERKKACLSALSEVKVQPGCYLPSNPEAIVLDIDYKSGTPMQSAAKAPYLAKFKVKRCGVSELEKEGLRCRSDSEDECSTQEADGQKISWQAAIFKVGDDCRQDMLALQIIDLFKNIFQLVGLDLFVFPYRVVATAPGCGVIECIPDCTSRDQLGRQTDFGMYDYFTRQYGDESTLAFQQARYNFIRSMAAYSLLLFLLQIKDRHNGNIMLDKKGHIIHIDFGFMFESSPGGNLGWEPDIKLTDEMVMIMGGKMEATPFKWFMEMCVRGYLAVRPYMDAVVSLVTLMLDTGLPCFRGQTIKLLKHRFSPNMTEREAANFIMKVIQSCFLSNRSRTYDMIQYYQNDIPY
Hi there, I'd appreciate the recorded IC50 for every entry that follows.
Write the answer as a number in nM, unit excluded.

Query: Recorded IC50 for `COc1ncc(-c2ccc3nc(N)n(-c4ccccc4)c(=O)c3c2)cc1NS(=O)(=O)c1ccccc1` , please?
Result: 2.51

Query: What about `COc1ncc(-c2ccc3nc(N)n(C4CCOCC4)c(=O)c3c2)cc1S(=O)(=O)Nc1ccc(F)cc1F` ?
Result: 10

Query: What about `COc1ncc(-c2ccc3nc(N)n(-c4ccccc4)c(=O)c3c2)cc1NS(=O)(=O)C(C)C` ?
Result: 126

Query: What about `COc1ncc(-c2ccc3nc(N)n(-c4cccc(C(F)(F)F)c4)c(=O)c3c2)cc1S(=O)(=O)Nc1ccc(F)cc1F` ?
Result: 50.1

Query: What about `COc1ncc(-c2ccc3nc(N)n(-c4ccccc4C)c(=O)c3c2)cc1S(=O)(=O)Nc1ccc(F)cc1F` ?
Result: 10

Query: What about `COc1ncc(-c2cnc3nc(N)c(-c4ccccc4)cc3c2)cc1NS(=O)(=O)c1ccc(F)cc1F` ?
Result: 631

Query: What about `Nc1ncc(-c2ccc3nc(N)n(-c4ccccc4)c(=O)c3c2)cc1NS(=O)(=O)c1ccc(F)cc1F` ?
Result: 0.794

Query: What about COc1ncc(-c2ccc3nc(N)n(-c4ccccc4C(F)(F)F)c(=O)c3c2)cc1S(=O)(=O)Nc1ccc(F)cc1F (atropisomer aS) ?
Result: 5.01

Query: What about `COc1ncc(-c2ccc3nc(N)n(-c4ccccc4C(F)(F)F)c(=O)c3c2)cc1S(=O)(=O)Nc1ccc(F)cc1F` ?
Result: 15.8

Query: What about COc1ncc(-c2ccc3nc(N)n(-c4ccccc4C(F)(F)F)c(=O)c3c2)cc1S(=O)(=O)Nc1ccc(F)cc1F (atropisomer aR) ?
Result: 126
